Data credit: ChEMBL document CHEMBL5291721

Molecular target: 5-hydroxytryptamine receptor 2B (Homo sapiens); further: assay procedure not described here
Sequence (P41595 whole entry): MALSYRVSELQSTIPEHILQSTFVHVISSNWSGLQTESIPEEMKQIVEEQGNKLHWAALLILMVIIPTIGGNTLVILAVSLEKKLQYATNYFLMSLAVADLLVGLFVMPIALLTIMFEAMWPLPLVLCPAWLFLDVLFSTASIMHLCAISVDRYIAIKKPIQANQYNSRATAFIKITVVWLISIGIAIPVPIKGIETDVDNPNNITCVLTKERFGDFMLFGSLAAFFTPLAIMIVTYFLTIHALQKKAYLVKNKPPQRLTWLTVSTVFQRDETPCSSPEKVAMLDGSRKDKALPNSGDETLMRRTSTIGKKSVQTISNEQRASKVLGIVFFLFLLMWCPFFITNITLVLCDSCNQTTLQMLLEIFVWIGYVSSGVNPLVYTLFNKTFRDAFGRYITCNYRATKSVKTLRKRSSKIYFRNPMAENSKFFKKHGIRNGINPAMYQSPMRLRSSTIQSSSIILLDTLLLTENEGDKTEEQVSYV
Format: functional, cell-based
As shown below, each of these compounds has a reported AC50 value.

Answered cases to consult:
# compound, systemUnderTest, readoutValue
records = [
    ("NC(=O)OCC(COC(N)=O)c1ccccc1 [FELBAMATE]", "5-hydroxytryptamine receptor 2B (Homo sapiens)", "> 10 µM"),
    ("CN1CCN(C2=Nc3ccccc3Sc3ccc(Cl)cc32)CC1", "5-hydroxytryptamine receptor 2B (Homo sapiens)", "1.3 µM"),
    ("CNC(=O)c1ccccc1Sc1ccc2c(/C=C/c3ccccn3)n[nH]c2c1", "5-hydroxytryptamine receptor 2B (Homo sapiens)", "> 30 µM"),
    ("CC(=O)O[C@H]1C[C@@H]2CC[C@@H]3[C@H](CC[C@@]4(C)[C@H]3C[C@H]([N+]3(C)CCCCC3)[C@@H]4OC(C)=O)[C@@]2(C)C[C@@H]1N1CCCCC1", "5-hydroxytryptamine receptor 2B (Homo sapiens)", "> 30 µM"),
    ("Nc1ccn([C@H]2CC[C@@H](CO)O2)c(=O)n1", "5-hydroxytryptamine receptor 2B (Homo sapiens)", "> 10 µM"),
    ("CN(C)CCC=C1c2ccccc2C=Cc2ccccc21", "5-hydroxytryptamine receptor 2B (Homo sapiens)", "1.25 µM"),
]

Moving on to the next compound.
(Q) Report AC50 for CC[C@@H](C(N)=O)N1CCCC1=O please.
(A) > 30 µM

====

AC50 data for Cannabinoid receptor 1 (Homo sapiens) follow.

Answered cases to consult:
# compound, systemUnderTest, readoutValue
rows = [
    ("Nc1nc(/C(=C/CC(=O)O)C(=O)N[C@@H]2C(=O)N3C(C(=O)O)=CCS[C@H]23)cs1 [CEFTIBUTEN]", "Cannabinoid receptor 1 (Homo sapiens)", "> 30 µM"),
    ("CN1C(=O)OC(C)(C)C1=O [TRIMETHADIONE]", "Cannabinoid receptor 1 (Homo sapiens)", "> 10 µM"),
    ("Clc1ccccc1C(c1ccccc1)(c1ccccc1)n1ccnc1 [CLOTRIMAZOLE]", "Cannabinoid receptor 1 (Homo sapiens)", "> 10 µM"),
    ("CCCC(=O)O[C@]1(C(=O)CO)CC[C@H]2[C@@H]3CCC4=CC(=O)CC[C@]4(C)[C@H]3[C@@H](O)C[C@@]21C [HYDROCORTISONE BUTYRATE]", "Cannabinoid receptor 1 (Homo sapiens)", "> 10 µM"),
    ("Cc1ccc(S(=O)(=O)NC(=O)NN2CC3CCCC3C2)cc1 (stereo unspecified) [GLICLAZIDE]", "Cannabinoid receptor 1 (Homo sapiens)", "> 10 µM"),
    ("O=C1C(O)=C([C@H]2CC[C@H](c3ccc(Cl)cc3)CC2)C(=O)c2ccccc21 [ATOVAQUONE]", "Cannabinoid receptor 1 (Homo sapiens)", "> 30 µM"),
]

(Q) What measured AC50 is associated with CCCCCNC(=N)N/N=C/c1c[nH]c2ccc(OC)cc12 [TEGASEROD] on Cannabinoid receptor 1 (Homo sapiens)?
(A) 10 µM

(Q) What measured AC50 is associated with O=P1(NCCCl)OCCCN1CCCl (stereo unspecified) [IFOSFAMIDE] on Cannabinoid receptor 1 (Homo sapiens)?
(A) > 30 µM

(Q) What measured AC50 is associated with CC(C)C[C@H]1C(=O)N2CCC[C@H]2[C@]2(O)O[C@](NC(=O)[C@@H]3C=C4c5cccc6[nH]c(Br)c(c56)C[C@H]4N(C)C3)(C(C)C)C(=O)N12 [BROMOCRIPTINE] on Cannabinoid receptor 1 (Homo sapiens)?
(A) > 10 µM

(Q) What measured AC50 is associated with CCCSc1ccc2nc(NC(=O)OC)[nH]c2c1 [ALBENDAZOLE] on Cannabinoid receptor 1 (Homo sapiens)?
(A) > 10 µM

(Q) What measured AC50 is associated with CC1=C(C(=O)O)N2C(=O)[C@@H](NC(=O)[C@H](N)c3ccccc3)[C@H]2SC1 [CEPHALEXIN ANHYDROUS] on Cannabinoid receptor 1 (Homo sapiens)?
(A) > 10 µM

(Q) What measured AC50 is associated with COc1ccccc1OCC(O)CN1CCN(CC(=O)Nc2c(C)cccc2C)CC1 (stereo unspecified) [RANOLAZINE] on Cannabinoid receptor 1 (Homo sapiens)?
(A) > 30 µM
